Data origin: PubChem BioAssay (NCI)

// values below are reported TGI
Tested on: MDA-MB-231 breast
PROTOCOL_TEXT: NCI tumour cell line growth inhibition, 48 h
Write down the numeric answer in µM and omit the unit.

[[record]]
compound = "c1ccc([P+](c2ccccc2)(c2ccccc2)c2ccc(-c3ccc([P+](c4ccccc4)(c4ccccc4)c4ccccc4)cc3)cc2)cc1"
experimental_result = 63.5


Attention now shifts to the item below.
Prompt: Indicate its recorded TGI; the compound in question is OCCCCCCCCCCCOc1ccc(C2OCC3(CC=CCC3)CO2)cc1 (stereo not given)
Response: 31.4

###

Tested on: U251 CNS
PROTOCOL_TEXT: NCI tumour cell line growth inhibition, 48 h
PROPERTY: GI50

Prompt: Indicate its recorded GI50; the molecule in question is CCN(CCO)CCCOc1ccc2c(Nc3cc(CC(=O)Nc4cccc(F)c4)[nH]n3)ncnc2c1
Response: 13.7 µM

###

Tested on: MALME-3M melanoma
PROTOCOL_TEXT: NCI tumour cell line growth inhibition, 48 h
PROPERTY: TGI

Here is how some molecules turned out for TGI.
[[record]]
molecule = "CCCCCCCCCCCC(=O)OC(COC(N)=O)COc1ccc(Cl)cc1 (stereo unspecified)"
experimental_result = "48.3 µM"

[[record]]
molecule = "NCCNCCCNC(=O)c1cc(-c2ccccc2)nc2ccccc12"
experimental_result = "30.8 µM"

[[record]]
molecule = "Cc1ccc(S(=O)(=O)Oc2nc3nc4ccccc4nc3nc2OS(=O)(=O)c2ccc(C)cc2)cc1"
experimental_result = "> 100 µM"


Prompt: Indicate its recorded TGI; the molecule in question is C[N+](C)(C)CCOP(=O)([O-])OCCNC(=O)c1ccc2ccccc2c1
Response: > 100 µM

Prompt: Indicate its recorded TGI; the molecule in question is N=C1C(c2nc3ccccc3s2)=C(O)CN1c1cc(Cl)cc(Cl)c1
Response: > 100 µM

###

// values below are reported GI50
Test system: HCT-116 colon
PROTOCOL_TEXT: NCI tumour cell line growth inhibition, 48 h

Prompt: Report value: GI50, system: HCT-116 colon, compound: Cc1cc(N)cc(C)c1-c1c(Br)cc(N)cc1Br
Response: 3.68 µM

Prompt: Report value: GI50, system: HCT-116 colon, compound: FC(F)(F)c1ccc(NCc2nc3ccccc3[nH]2)cc1
Response: 23 µM

Prompt: Report value: GI50, system: HCT-116 colon, compound: N[C@@H](CSSC[C@H](N)C(=O)N1CCn2cc(-c3ccccc3)nc2[C@@H]1CC1CCCCC1)C(=O)N1CCn2cc(-c3ccccc3)nc2[C@@H]1CC1CCCCC1
Response: 1.14 µM

Prompt: Report value: GI50, system: HCT-116 colon, compound: CCCc1n(Cc2ccc3ccccc3n2)cc[n+]1Cc1ccc2ccccc2n1
Response: 2.81 µM

Prompt: Report value: GI50, system: HCT-116 colon, compound: O=C1NC(=O)C(c2c[nH]c3ccccc23)=C1c1ccccc1
Response: > 25 µM

Prompt: Report value: GI50, system: HCT-116 colon, compound: COc1ccc(-c2nc3sccn3c2-c2ccnc(NCCCNS(=O)(=O)c3ccc(F)cc3)n2)cc1
Response: 3.19 µM

###

// values below are reported GI50
Test system: A549 NSCLC
PROTOCOL_TEXT: NCI tumour cell line growth inhibition, 48 h

[[record]]
compound = "O=C1NC(=O)C(c2c[nH]c3ccccc23)=C1c1ccccc1"
tested_on = "A549 NSCLC"
experimental_result = "> 25 µM"

[[record]]
compound = "COc1cc(NC(C)CCCN2C(=O)c3ccccc3C2=O)c2ncccc2c1OC (configuration not stated)"
tested_on = "A549 NSCLC"
experimental_result = "33 µM"


Attention now shifts to the item below.
Prompt: Indicate its recorded GI50; the compound in question is CCCc1n(Cc2ccc3ccccc3n2)cc[n+]1Cc1ccc2ccccc2n1
Response: 7.73 µM
